target: Neurogenic locus notch homolog protein 3 (Homo sapiens); assay: NOTCH3 binders on small-molecule microarray, primary screen, biochemical, 635/667 nm fluorescence (AID 1096); details: NOTCH3 binding, 635 nm fluorescence, higher = more signal
Hi, to clarify the labels: true covers composite z-score from 0.5 upward, false covers anything below 0.5.

COc1ccc(NN2C(C(O)c3ccccn3)C=CC3C(=O)N(C4CCCCC4)C(=O)C32)cc1 (centres undefined); true
COc1c(C)cc(-c2cc3c(c(Cc4ccccc4)n2)[Si](C(C)C)(C(C)C)OC3)cc1C; true
C=CCOC(=O)[C@H]1[C@@H]2C(=O)O[C@@H](c3ccccc3)[C@@H](c3ccccc3)N2[C@@H](c2ccc(OCCOC(=O)[C@H]3C[C@H]4C(=O)N[C@@H](CCCC[N+](C)(C)C)C(=O)N4[C@H]3c3cccc(OCCO)c3)cc2)[C@]12C(=O)Nc1ccc(I)cc12; false
C=C1C2CC3C(=C4C(CO[C@@H]4[C@H]4CCCN4S(=O)(=O)c4ccccc4[N+](=O)[O-])C4C(=O)N(C)C(=O)C34)CC2C(=O)N1C (some centres undefined); false
C=C[C@@H](COC(C)=O)NS(=O)(=O)c1ccc(Br)cc1; false

input: Hello, I need to know if CC(C)C[C@@H]1NC(=O)[C@H]2C[C@@H](C(=O)NCCCCCC[N+](C)(C)C)[C@@H](c3cccc(OCCO)c3)N2C1=O has measured composite z-score not below 0.5. Thanks!
output: true

input: Does the reported composite z-score for CCCC=C(CCC)[C@@H](NP(=O)(c1ccccc1)c1ccccc1)c1ccc(C(F)(F)F)cc1 fall at or above the 0.5 mark?
output: false

input: Reported composite z-score at or above 0.5? [N-]=[N+]=Nc1ccccc1C[C@]1(C(=O)NCc2ccccc2)N=C(c2ccc(OCCCO)cc2)O[C@H]1c1ccccc1
output: true

input: Exam item: decide whether the reported composite z-score for COCCOC(=O)N1C(=O)[C@@]2(c3cc(C#CC4(O)CCCCCC4)ccc31)[C@H](c1ccccc1OCCO)N1[C@H](c3ccccc3)[C@H](c3ccccc3)OC(=O)[C@H]1[C@@H]2C(N)=O is at least 0.5.
output: true

input: Please check the record CCOC(=O)C[C@H]1[C@H](OC(=O)c2ccccc2-c2ccccc2)[C@@H](NC(=O)CC(C)C)c2cc(OCCCO)ccc2N1C(=O)c1ccc2ccccc2n1 and state if its composite z-score is at or above 0.5.
output: false

###

test: binders of probe aFSTL3 on microarray, primary screen, stem cell growth factor project, biochemical, small-molecule microarray, fluorescence 635/667 (AID 1064); details: higher = more signal;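 further: measures binding of the biotinylated anti-FSTL3 antibody to printed compounds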
property name: composite z-score
Give the value as a plain number.

CC(C)(C)N1CC=CC23O[C@@H]4C=CCOC(=O)[C@@H]4[C@H]2C(=O)N(CCCO)[C@@H]3C1=O (stereo partly specified); 0.698
O=C(N1CCCCC1)[C@@]1(Cc2ccccc2)COC(c2ccc(OCCCO)cc2)=N1; 0.771
COC(=O)[C@@]1(Cc2ccc(OC)cc2)[C@H]2c3cc(C(=O)N4CCCC4)n(CCc4cc5ccccc5[nH]4)c3C[C@H]2CN1C(=O)c1ccccc1; 0.649
CCOC(=O)[C@H]1C/C=C/C[C@H](C(=O)OCC)C(=O)O[C@H]2[C@@H](OC)O[C@H](CO)[C@@H](OC(=O)Nc3ccc(OC)cc3)[C@@H]2OC1=O; -0.0119
O=C(O)[C@H]1C[C@H]2C(=O)N3CCC[C@H]3C(=O)N2[C@H]1c1cccc(OCCO)c1; 0.376

input: Field request: composite z-score | item: C[C@]1(C(=O)NCCN2CCOCC2)c2ccccc2C(=O)N(Cc2ccc(OC(F)(F)F)cc2)[C@H]1c1ccc(CO)cc1
output: 0.0198

input: Which measured composite z-score value corresponds to CCCCC(=C=CC[C@@H](O)c1ccc(OCCO)cc1)C[C@@H](O)COCc1ccccc1 ?
output: -0.111

input: Name the reported composite z-score value associated with the molecule COC(=O)[C@@]1(Cc2ccccc2)[C@H]2c3cc(C(=O)N4CCCC4)n(C[C@H](O)CO)c3C[C@H]2CN1C(=O)c1ccccc1
output: 0.52

input: Which composite z-score reading was recorded for the molecule CC(C)C(O)C1C=CC2C(=O)N(C)C(=O)C2N1Nc1ccccc1 (stereo unspecified) ?
output: 0.383

input: Dear colleague, I am looking for the recorded composite z-score of the following molecule: C=CCNC(=O)[C@H]1[C@@H]2C(=O)O[C@@H](c3ccccc3)[C@@H](c3ccccc3)N2[C@@H](c2ccccc2OCCO)[C@]12C(=O)N(C(=O)OCCOC)c1ccc(C#CC3=CCCCC3)cc12
output: 1.13

input: Entry C=C(CCCC)C(=O)CC[C@@H](OC(=O)c1cccnc1)c1ccccc1OCCO has what composite z-score?
output: 0.0165

input: If you can, please state the reported composite z-score value of COc1ccc([Si](C)(C)[C@@H]2[C@@H](CCO)O[C@]3(C(=O)N(Cc4cccc(N5C(=O)c6cccc7cccc5c67)c4)c4ccccc43)[C@H]2C)cc1 .
output: 0.385

input: Recorded composite z-score of O=C1OCCC=C[C@H]2OC34C=CCN(c5ccc(Cl)cc5)C(=O)[C@H]3N(CCCCCO)C(=O)[C@@H]4C12 (stereo partly specified) , please.
output: 0.418

input: What composite z-score value was documented for this molecule, CN1C(=O)C2C(C1=O)C1C=C(c3ccc(CO)cc3)C2C(c2cccs2)N1Cc1cccc(OC(F)(F)F)c1 (stereo unspecified) ?
output: -0.16

input: Which composite z-score is listed for CCCCC(CC)C(O)C1C=CC2C(=O)N(c3ccccc3)C(=O)C2N1Nc1ccc([N+](=O)[O-])cc1 (stereo unspecified) ?
output: -0.294

input: Fill in the blank: the reported composite z-score of C=CC[C@@H](OC(=O)Nc1ccc(OC)cc1)c1ccc(OCCO)cc1 is ____.
output: 0.767
